experiment: protein stability index of a GFP-peptide fusion (yeast GPS) (PSI 1-4); higher = more stable; sorted into four equal gates, so the index is relative within each strain; conditions: san1∆
measurementType: protein stability index

Some solved cases for reference:
constructSequence	dataValue
NYNSTSRSTEKKNDMNT [SIR4]	2.61
PQKYVLHPQLHEVQYQE [SIN4]	2.15
FDEKTIEEMLEIISGYA [RPC17]	2.07
TKFNHNKEKSNSPTSFF [YOR098C/NUP1]	2.66
PNSSANNNPLQQQSSQN [GAL11]	3.02

Next sequence, protein stability index to be filled in.
Challenge: Dear colleague, I am looking for the recorded protein stability index of the following sequence: DVTAIQTWSYLSLYSTD [ECM29]
Response given: 1.9

---

assay: protein stability index of a GFP-peptide fusion (yeast GPS) (PSI 1-4); higher = more stable; sorted into four equal gates, so the index is relative within each strain; details: ubr1∆
measurementType: protein stability index

constructSequence	protein stability index
RKDENQFSYVDSSMTTV [AAR2]	3.06
ARLAILKERAKNISSQL [YGR119C/NUP57]	2.51
LNELHPTLPTNHNKTKL [PRP8]	2.72
DVSLLLQRDLFIRLPHW [RGR1]	2.55
NTSAATVHTATSSSIIL [SSN2]	2.65
TGSNDRCIGDSDNVSFE [YMR129W/POM152]	3.09
LFLRGDSVIVVLKTPVE [SMD2]	2.38
LGVTYSSPTLATGFGAH [PRE4]	1.62

Challenge: Dear colleague, I am looking for the recorded protein stability index of the following sequence: DCLSFAPTLSQTYINQE [SSN2]
Response given: 2.91

Challenge: Dear colleague, I am looking for the recorded protein stability index of the following sequence: PLPPRIDPSVTMMTVEE [RPT1]
Response given: 1.88

---

Collected protein stability index values appear next to each entry.
experiment: protein stability index of a GFP-peptide fusion (yeast GPS) (PSI 1-4); higher = more stable; sorted into four equal gates, so the index is relative within each strain; details: san1∆
// no unit, no text: just the number

constructSequence	protein stability index
DRCVDPEDPYFNTLVRI [DIS3]	3.48
ISELPPQIRQEIEQLDQ [YGL172W/NUP49]	2.65
LVALKRNADELSSYQKK [PRE5]	2.68
NKKSEQALDISKKGKPT [SRP72]	2.81
PRDLLRVIIQELRFPSP [PRP28]	1.78
DILLRLCVLWDDLQSSV [YCG1]	1.72
FNYNIFMHDPSVFYNIA [SIR2]	1.5
TEKLSNGFSFTKFNHNK [YOR098C/NUP1]	3.02
VLITDHIEKLENEFVVL [CDC53]	2.1
TDLPIETAAMASLALAH [RPN1]	1.58

Challenge: Dear colleague, I am looking for the recorded protein stability index of the following sequence: VIWELDDSANIVNVNFM [DIS3]
Response given: 3.21

Challenge: Dear colleague, I am looking for the recorded protein stability index of the following sequence: LFPEQQTKEIKTERVED [RPL6B]
Response given: 3.46

Challenge: Dear colleague, I am looking for the recorded protein stability index of the following sequence: YGIVAMAATATDKIGRS [FAS2]
Response given: 1.65

Challenge: Dear colleague, I am looking for the recorded protein stability index of the following sequence: ATTGGLFGSKPQGSTTN [YGR119C/NUP57]
Response given: 3.39

Challenge: Dear colleague, I am looking for the recorded protein stability index of the following sequence: NRQICLVQKTVQESGNI [GRR1]
Response given: 2.81
